- TGT: T1, full-length human 14-3-3γ fused to the C terminus of MBP (human, UniProt P61981 1-247)
- T1 chain: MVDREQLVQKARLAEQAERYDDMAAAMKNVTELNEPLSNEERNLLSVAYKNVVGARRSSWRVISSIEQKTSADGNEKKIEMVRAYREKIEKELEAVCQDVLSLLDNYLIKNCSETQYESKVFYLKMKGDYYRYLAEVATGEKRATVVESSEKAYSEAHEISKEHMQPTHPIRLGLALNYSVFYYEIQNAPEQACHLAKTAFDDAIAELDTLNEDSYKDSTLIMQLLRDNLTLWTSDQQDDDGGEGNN
- MEASUREMENT PROTOCOL: FP; +FSC
Non-standard residues stand in square brackets, D forms with d. No end group written: not given here. *: point of attachment. Biotin = O=C1N[C@H]2[C@H](CS[C@H]2CCCCC(=O)*)N1; pT = C[C@@H](OP(=O)(O)O)[C@H](N)C(=O)O; ttds = NCCCOCCOCCOCCCNC(=O)CCC(=O)*
READOUT: Kd (µM)

{"columns": ["BINDER", "RESULT UNITS", "QUANTITATIVE RESULT"],
 "data": [
  ["{Biotin-ttds}-RLQRRRE[pT]QV [HPV18 E6 phospho-PBM peptide p18E6]", "µM", 19.3],
  ["{Biotin-ttds}-SSRTRRE[pT]QL [HPV16 E6 phospho-PBM peptide p16E6]", "µM", 91.7]
]}
